Sourced from patent US20190224101A1

- assaySystem: Propionibacterium acnes (P. acnes) whole cells, surface antigen not identified (Propionibacterium acnes)
- protocolSummary: IgG ELISA on whole P. acnes
quantity: O.D. 450 nm (O.D. 450 nm)
Please state the figure in O.D. 450 nm; there is no need to write the unit.

Some solved cases for reference:
Which O.D. 450 nm value is on record for 10F antibody (antibody, V domains shown) VH: QVQLVESGGGLIQPGGSLRLSCVASGFTVSSSFMSWVRLAPGKGLEWVALAYSGGNTYYADSVKGRFTVSRDDSSNTLYLQMNSLRAEDTAVYYCSCEGKAVSGSRDLHFEFWSPGTLVTVSS VL: SYELTQAPSLSVSPGQTANIICSGDNLRTKYVSWYQQKPGQAPVLVIYNDNDRPSGIPERFSGTNSGNTAALTISRVEAGDEADYYCQVWDSSSDHLIFGGGTKLTVL ?
0.00605

Here is the next binder: 8F antibody (antibody, V domains shown) VH: QVQLVQSGGGVVQPGGSLRLSCAASGFSFNDYAMHWVRQVPGKGLEWVSSISWNSRSTVYAASVEGRFSISRDNSKNSLYLQMNSLRAEDAAVYYCTTDLGVVPAAIYAFDIWGQGTMVTVSS VL: DIQMTQSPSVMSASVGDRVNITCRASQGITNWLAWYQQKPGKAPKLLISAASSLQSGVPSRFSGSGSGTDFTLTISSLQPDDFATYYCQQTATFQITFGQGTRLDIK
2.32

Can you check 6F antibody (antibody, V domains shown) VH: QVQLVESGGGVVRPGGSLRLSCTASGFTFDDHGMSWVRQAPGKGLEWVSTINLNGGSTAYADSVKGRFTISRDNAKNSLYLQMNSLRAEDTAVYYCSTRHLHHWGQGTLVTVSS VL: DIVMTQTPLSSPVTLGQPASISCRSSQSLVHSNGNTYLTWLQQRPGQPPRLLIHKISNRFSGVPDRFSGSGAGTDFTLKISRVEAEDVGVYYCVQAKQFPLTFGQGTRLEIK next?
2.36

The record that follows has no O.D. 450 nm shown yet.
Entry 3F antibody (antibody, V domains shown) VH: QMQLVQSGAEVKKPGASVKVSCKASGYTFTDYYIHWVRQAPGQGLEWMGWINPNSGAPEFAQRFQGRVSMTRDASINTTYMELSGLRSEDTAVYYCVKGLEHAAGSAIFDRWGQGTMVTVSS VL: QTVVTQEPSFSVSPGGTVTLTCGLTSGSVSTSHFPSWYQQTPGQAPRTLIYFKDTRSSGVPDRFSGSILGNKAALTITGAQADDESDYYCALSMGSGIWVFGGGTKLTVL has what O.D. 450 nm?
0.0149
